- Tested on: Calf thymus DNA
- PROCEDURE TEXT: Binding affinity to calf thymus DNA assessed as groove binding by measuring induced circular dichroism with negative signs around 370-380 nm by CD spectroscopy
- Type: nucleic-acid assay
- PROTOCOL CONDITIONS: Bos taurus
Activity calls are given as the source filed them. No cut-off for these calls is given here.
PARAMETER: Activity

C[n+]1ccc(-c2c3ccccc3c(-c3cc[n+](C)cc3)c3cc(C(C)(C)C)ccc23)cc1; inactive
C[n+]1ccc(-c2c3ccccc3c(-c3cc[n+](C)cc3)c3ccccc23)cc1; Active
C[n+]1ccccc1-c1c2ccccc2c(-c2cccc[n+]2C)c2ccccc12; inactive
C[n+]1cc(-c2c3ccccc3c(-c3cc4ccccc4[n+](C)c3)c3ccccc23)cc2ccccc21; Active
C[n+]1cccc(-c2c3ccccc3c(-c3ccc[n+](C)c3)c3ccccc23)c1; Active
CCc1ccc2c(-c3cc[n+](C)cc3)c3ccccc3c(-c3cc[n+](C)cc3)c2c1; Active

Consider now this further molecule.
In: API: value(readout= Activity, system= Calf thymus DNA, query= Cc1ccc2c(-c3cc[n+](C)cc3)c3ccccc3c(-c3cc[n+](C)cc3)c2c1 )
Out: Active
